test: chemical genetic growth profiling, strain panel (AID 1159580);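 note: tested at 20 µM; growth read once vehicle control cultures reached saturation at 30 °C; 1 = growth at the plate median or of vehicle wells; lower values mean less growth of the strain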; settings: S. cerevisiae deletion strains, growth OD, locus YER110C, hits give low values
Among all 5,500 compounds or so, about 2,000 (36%) were called active. Not shown: some 18% with an inconclusive outcome. Some of the results follow. Where a SMILES comes first, the peptide text is derived from it. Bridges are numbered along the chain shown (N, C = ends). [ ]: non-standard residue; d: D form. The star is where a group is joined. ξ: configuration not given here. ξDab(CH2SO3H) = NC(CCNCS(=O)(=O)O)C(=O)O; Heptanoyl(6-Me) = CC(C)CCCCC(=O)*; Dab = NCC[CH](N)C(=O)O
MEASURED_QUANTITY: normalized growth
Numbers only.

The examples below pair each entry with its known result.
So, CC(=O)NC(C(=O)O)C(C)(C)SN=O (stereo not given) ? Its normalized growth was 0.984

// sample `CC(C)(C#N)O[C@@H]1O[C@H](CO)[C@@H](O)[C@H](O)[C@H]1O` , its normalized growth was 0.985

Count: 8. Required value per item: normalized growth.
1. CCC(C)C1NC(=O)C(CCNCS(=O)(=O)O)NC(=O)C(NC(=O)C(CCNCS(=O)(=O)O)NC(=O)C(NC(=O)C(CCNCS(=O)(=O)O)NC(=O)CCCCC(C)C)C(C)O)CCNC(=O)C(C(C)O)NC(=O)C(CCNCS(=O)(=O)O)NC(=O)C(CCNCS(=O)(=O)O)NC(=O)C(C(C)CC)NC1=O (stereo not given) ({Heptanoyl(6-Me)}-[ξDab(CH2SO3H)]T[ξDab(CH2SO3H)][Dab][ξDab(CH2SO3H)]II[ξDab(CH2SO3H)][ξDab(CH2SO3H)]T; lactam 4-C; configuration not given here)
2. COc1cccc(OC)c1OCCNCC1COc2ccccc2O1 (stereo not given)
3. OC(CCN1CCCCC1)(c1ccccc1)C1CCCCC1 (stereo not given)
4. NCCC(=O)N[C@@H](Cc1cnc[nH]1)C(=O)O
5. C#C[C@]1(O)CCC2C3CCC4=CC(=O)CC[C@@H]4C3CC[C@@]21C (stereo not given in full)
6. COC1=C[C@@H]2[C@@H]3Cc4ccc(OC)c(O)c4[C@]2(CCN3C)CC1=O
7. C#C[C@]1(O)CCC2C3CCC4=C(CCC(=O)C4)C3CC[C@@]21C (stereo not given in full)
8. NC(Cc1c[nH]c2ccccc12)C(=O)O (stereo not given)

Result string:
0.98
0.978
1
0.972
0.982
0.969
1
0.98

###

experiment: chemical genetic growth profiling, strain panel (AID 1159580);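 note: tested at 20 µM; growth read once vehicle control cultures reached saturation at 30 °C; 1 = growth at the plate median or of vehicle wells; lower values mean less growth of the strain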; settings: S. cerevisiae deletion strains, growth OD, locus YDL028C, strain MPS1, hits give low values
The campaign covered roughly 5,500 compounds. About 2,000 (36%) were called active. About 18% were inconclusive and are not listed. The list shows a part of the results.
MEASURED_QUANTITY: normalized growth
Give bare numbers.

So, `S=C(Nc1ccc(Cl)cc1)SCc1c(Cl)cccc1Cl` ? Its normalized growth was 0.985

Record S=C(NNC(=S)NC1CC2C=CC1C2)Nc1ccc(Br)c(Cl)c1 (configuration not stated) . Reported normalized growth: 0.979

Lookup result for `CC(C)(C)C(=O)N(Cc1cccnc1)Cc1ccc(Cl)cc1Cl` ; measured normalized growth: 0.992

Entry `O=C(NCCc1ccncc1)c1ccc(Cl)c(Cl)c1` ; normalized growth = 0.985

The compound identified as `O=C(Nc1ccc(Cl)cc1)SCc1c(Cl)cccc1Cl` registered its normalized growth at 0.987

Value of measured normalized growth for the entry `O=S(=O)(c1ccc(Cl)cc1)N(Cc1cccnc1)Cc1ccc(Cl)cc1Cl` : 0.96

Attention now turns to another entry.
The compound listed as O=C(NCC(c1ccccc1)c1c[nH]c2ccccc12)c1ccc(C(F)(F)F)cc1 (configuration not stated) has a reported normalized growth of 0.993
